Study System: recombinant hSSAO (Homo sapiens (Human))
Sequence (Q16853 whole entry): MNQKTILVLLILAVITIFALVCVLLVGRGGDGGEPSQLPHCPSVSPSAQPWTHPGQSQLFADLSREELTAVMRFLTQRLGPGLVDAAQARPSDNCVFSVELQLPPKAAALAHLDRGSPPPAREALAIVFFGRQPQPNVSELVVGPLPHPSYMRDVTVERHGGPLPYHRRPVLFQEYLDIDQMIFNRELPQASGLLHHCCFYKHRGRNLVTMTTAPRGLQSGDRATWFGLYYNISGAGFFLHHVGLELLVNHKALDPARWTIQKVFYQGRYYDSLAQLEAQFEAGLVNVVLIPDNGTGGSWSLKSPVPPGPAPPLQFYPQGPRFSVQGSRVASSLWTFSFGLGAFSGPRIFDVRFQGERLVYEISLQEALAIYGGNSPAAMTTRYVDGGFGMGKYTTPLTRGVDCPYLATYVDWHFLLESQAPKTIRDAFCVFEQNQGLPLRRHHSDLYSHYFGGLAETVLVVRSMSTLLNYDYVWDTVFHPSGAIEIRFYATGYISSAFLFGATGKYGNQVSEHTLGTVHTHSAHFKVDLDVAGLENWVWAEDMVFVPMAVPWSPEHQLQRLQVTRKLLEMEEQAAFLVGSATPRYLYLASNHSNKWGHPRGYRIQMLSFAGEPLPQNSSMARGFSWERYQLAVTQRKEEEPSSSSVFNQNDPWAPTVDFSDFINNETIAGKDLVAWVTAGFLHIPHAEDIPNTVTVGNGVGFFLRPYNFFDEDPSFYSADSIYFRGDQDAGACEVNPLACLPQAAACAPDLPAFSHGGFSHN
Assay Explanation: SSAO Activity Assay (MAO-Glo assay kit)
Measurement Setup: 40 μM substrate, 30 mins pre-incubation
pIC50: −log10 of the molar value.
In this section we review reported pIC50 values for a set of compounds.

Example compounds with recorded pIC50:
| Compound | Study System | pIC50 |
| --- | --- | --- |
| C[C@@H](CS(=O)(=O)c1ccc(OC/C(=C/F)CN)cc1)N1CCCCC1=O [compound 108] | recombinant hSSAO (Homo sapiens (Human)) | 7.00 to 7.70 |
| NC/C(=C\F)COc1ccc(S(=O)(=O)CC2(O)CCOCC2)cc1 [compound 10] | recombinant hSSAO (Homo sapiens (Human)) | 7.00 to 7.70 |

Give the measured pIC50 of CC(CN1CCOCC1)CS(=O)(=O)c1ccc(OC/C(=C/F)CN)cc1F (stereo not drawn) [Compound 114] .
7.00 to 7.70

Sample CC1(C)CC(=O)N(CS(=O)(=O)c2ccc(OC/C(=C/F)CN)cc2)C1 [Compound 126] — what was its pIC50?
6.30 to 7.00
